- target-of-assay: T1, human NPR1 on CHO-K1 cells (human, UniProt P16066 33-1061)
- T1 sequence: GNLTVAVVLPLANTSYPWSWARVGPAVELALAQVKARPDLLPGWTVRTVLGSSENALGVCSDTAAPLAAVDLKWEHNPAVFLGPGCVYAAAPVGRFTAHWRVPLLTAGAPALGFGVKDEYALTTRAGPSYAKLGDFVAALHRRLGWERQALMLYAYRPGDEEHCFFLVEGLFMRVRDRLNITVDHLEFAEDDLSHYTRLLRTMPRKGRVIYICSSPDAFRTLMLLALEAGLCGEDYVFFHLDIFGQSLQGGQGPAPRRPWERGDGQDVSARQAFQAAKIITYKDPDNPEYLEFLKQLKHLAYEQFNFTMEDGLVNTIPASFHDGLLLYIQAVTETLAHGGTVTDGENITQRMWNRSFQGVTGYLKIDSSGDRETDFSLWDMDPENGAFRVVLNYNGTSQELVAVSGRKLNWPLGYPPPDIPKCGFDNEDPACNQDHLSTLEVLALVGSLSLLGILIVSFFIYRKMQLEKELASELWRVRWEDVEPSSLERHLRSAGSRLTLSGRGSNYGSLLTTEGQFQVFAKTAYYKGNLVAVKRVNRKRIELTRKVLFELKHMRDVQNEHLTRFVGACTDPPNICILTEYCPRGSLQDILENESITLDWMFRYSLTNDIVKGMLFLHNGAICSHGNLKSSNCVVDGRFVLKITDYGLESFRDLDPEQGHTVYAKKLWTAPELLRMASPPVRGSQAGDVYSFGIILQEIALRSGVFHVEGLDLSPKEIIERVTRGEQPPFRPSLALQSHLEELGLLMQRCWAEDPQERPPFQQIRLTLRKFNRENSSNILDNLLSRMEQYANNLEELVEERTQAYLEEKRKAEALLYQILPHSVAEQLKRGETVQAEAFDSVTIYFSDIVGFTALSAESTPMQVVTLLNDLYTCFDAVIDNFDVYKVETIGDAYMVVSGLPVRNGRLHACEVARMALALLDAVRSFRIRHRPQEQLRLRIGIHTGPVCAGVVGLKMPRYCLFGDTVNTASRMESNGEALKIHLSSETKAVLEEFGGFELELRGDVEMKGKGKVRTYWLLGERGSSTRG
- protocol: cell-based or functional assay

- binder: "YY05 (IgG format) (antibody, V domains shown, also called YY05_LALA) VH: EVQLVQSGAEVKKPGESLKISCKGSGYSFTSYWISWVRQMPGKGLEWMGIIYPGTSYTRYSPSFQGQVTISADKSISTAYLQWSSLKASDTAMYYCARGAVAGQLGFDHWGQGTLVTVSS VL: QSVLTQPPSVSGAPGQRVTISCTGSSSNIGAGYDVHWYQQLPGTAPKLLIYGNSNRPSGVPDRFSGSKSGTSASLAITGLQAEDEADYYCQSYYTSSHGPVFGGGTKLTVLG"
  cGMP conc [nM] at 1 µM IgG, without ANP / nM: 13
